# system-tested: T1, cynomolgus TGF-β RII/Fc (cynomolgus)
# T1 construct: extracellular domain; also called Cyno TGFBRII; Cyno TGFbRII
# assay: SPR Biacore T200, receptor-Fc captured by anti-human IgG, dAb as analyte, 1:1 model
assay-metric: koff (s⁻¹)

INSERT INTO measurements (binder, unit_tag, recorded_number) VALUES
  ('DOM23h-439-25 (VHH, expressed from pC10) VHH: EVQLLESGGGLVQPGGSLRLSCAASGFTFGTEQMWWVRQAPGKGLEFVSRIDSPGGRTYYADSVKGRFTISRDNSKNTLYLQMNSLRAEDTAVYYCAKRRPTGVSGTFYDYWGQGTLVTVSS', 's⁻¹', 0.00273),
  ('DOM23h-271-129 (VHH, expressed from pC10) VHH: EVQLLESGGGLVQPGGSLRLSCAASGSTFTEYRMWWVRQAPGKGLEWVSAIEPIGHRTYYADSVKGRFTISRDNSKNTLYLQMNSLRAEDTAVYYCAKQAPNQRYVARGRLDYWGQGTLVTVSS', 's⁻¹', 0.000427),
  ('DOM23h-271-133 (DOM23h-271-123 + C-terminal Alanine + 61N64R) (VHH, human VH dAb) VHH: EVQLLESGGGLVQPGGSLRLSCAASGSTFTEYRMWWVRQAPGKGLEWVSAIEPIGHRTYYANSVRGRFTISRDNSKNTLYLQMNSLRAEDTAVYYCAKQAPGEKWARRWDLDYWGQGTLVTVSS', 's⁻¹', '8.71e-05'),
  ('DOM23h-439-41 (DOM23h-439-25 + C-terminal Alanine + 48I) (VHH, human VH dAb) VHH: EVQLLESGGGLVQPGGSLRLSCAASGFTFGTEQMWWVRQAPGKGLEFISRIDSPGGRTYYADSVKGRFTISRDNSKNTLYLQMNSLRAEDTAVYYCAKRRPTGVSGTFYDYWGQGTLVTVSS', 's⁻¹', 0.000522),
  ('DOM23h-271-130 (DOM23h-271-123 + C-terminal Alanine) (VHH, human VH dAb) VHH: EVQLLESGGGLVQPGGSLRLSCAASGSTFTEYRMWWVRQAPGKGLEWVSAIEPIGHRTYYADSVKGRFTISRDNSKNTLYLQMNSLRAEDTAVYYCAKQAPGEKWARRWDLDYWGQGTLVTVSS', 's⁻¹', 0.000324),
  ('DOM23h-271-123 (VHH, expressed from pC10) VHH: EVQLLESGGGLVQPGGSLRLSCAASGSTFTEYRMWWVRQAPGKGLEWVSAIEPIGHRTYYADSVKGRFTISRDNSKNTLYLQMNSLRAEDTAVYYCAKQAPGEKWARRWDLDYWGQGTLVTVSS', 's⁻¹', 0.00032),
  ('DOM23h-271-132 (DOM23h-271-123 + C-terminal Alanine + 64R) (VHH, human VH dAb) VHH: EVQLLESGGGLVQPGGSLRLSCAASGSTFTEYRMWWVRQAPGKGLEWVSAIEPIGHRTYYADSVRGRFTISRDNSKNTLYLQMNSLRAEDTAVYYCAKQAPGEKWARRWDLDYWGQGTLVTVSS', 's⁻¹', 0.000238);

Origin of values: patent US20150361176A1
